test: Binding affinity against c-Src tyrosine kinase SH2 domain expressed as ratio of IC50 of test compound over IC50 of AcYEEIE
Square brackets hold non-standard residues; d marks the D form. Peptide text beside a SMILES is read from it. pY = N[C@@H](Cc1ccc(OP(=O)(O)O)cc1)C(=O)O; Ahp = NCCCCCCC(=O)O
measured quantity: Ratio

Reported Ratio, compound CCCCCN(CCCCC)C(=O)[C@H](CCC(=O)O)NC(=O)[C@H](Cc1ccc(OP(=O)(O)O)cc1)NC(=O)COCc1ccccc1 : ____
32.7

Reported Ratio, compound CC(=O)N[C@@H](Cc1ccc(OP(=O)(O)O)cc1)C(=O)N[C@@H](CCC(=O)O)C(=O)NCCCCCCC(=O)O (Ac-[pY]-Glu-[Ahp]-OH) : ____
36.7

Reported Ratio, compound CCCCCNC(=O)[C@H](CCC(=O)O)NC(=O)[C@H](Cc1ccc(OP(=O)(O)O)cc1)NC(C)=O : ____
16.6

Reported Ratio, compound CCCCCN(CCCCC)C(=O)[C@H](CCC(=O)O)NC(=O)[C@H](Cc1ccc(OP(=O)(O)O)cc1)NC(=O)OCc1ccccc1 : ____
79.7

Reported Ratio, compound CC(=O)N[C@@H](Cc1ccc(OP(=O)(O)O)cc1)C(=O)N[C@@H](CCC(=O)O)C(=O)N(C)CCc1c[nH]c2ccccc12 : ____
31.8

Reported Ratio, compound CC(=O)N[C@@H](Cc1ccc(OP(=O)(O)O)cc1)C(=O)N[C@@H](CCC(=O)O)C(=O)O (Ac-[pY]-Glu-OH) : ____
606

Reported Ratio, compound CCCCCN(CCCCC)C(=O)[C@H](CCC(=O)O)NC(=O)[C@H](Cc1ccc(OP(=O)(O)O)cc1)NC(=O)c1ccccc1 : ____
15.3

FYI, the data here is from ChEMBL document CHEMBL1131573.
